Tested on: 354836-022-R-J1-PDC multicell spheroid viability
protocol: Anticancer human tumor 354836-022-R-J1-PDC patient-derived head and neck squamous cell carcinoma cell line growth inhibition [PI3K]
setup conditions: second compound 0.316 µM; first compound 0.316 µM; hits give low values
Text: Combinatorial screen of targeted agents with the PI3K inhibitors inavolisib, alpelisib, duvelisib, and copanlisib in multi-cell type tumor spheroids A high-throughput screen of multi-cell type tumor spheroids was designed to identify active combinations of targeted small molecules and PI3K pathway inhibitors. […] Compounds. […] If the clinical Cmax for an agent had not been determined, the highest concentration tested was 10 microM. […]
Listed next: entries and their corresponding viability, T/C.

Known results for compounds:
[[record]]
compound = "CC(Cn1ccc(-c2ccc(C#N)c(Cl)c2)n1)NC(=O)c1cc(C(C)O)[nH]n1 (stereo unspecified) + CC(Nc1ncnc2nc[nH]c12)c1cc2cccc(Cl)c2c(=O)n1-c1ccccc1"
readout_name = "viability, T/C"
observed = "97.6%"

[[record]]
compound = "CCCS(=O)(=O)Nc1ccc(F)c(C(=O)c2c[nH]c3ncc(-c4ccc(Cl)cc4)cc23)c1F + CC(Nc1ccc2c(c1)OCCn1cc(N3C(=O)OCC3C(F)F)nc1-2)C(N)=O"
readout_name = "viability, T/C"
observed = "78.4%"

[[record]]
compound = "C[C@@H](NC(=O)c1ncnc(N)c1Cl)c1ncc(C(=O)Nc2cc(C(F)(F)F)c(Cl)cn2)s1 + CC(Nc1ccc2c(c1)OCCn1cc(N3C(=O)OCC3C(F)F)nc1-2)C(N)=O"
readout_name = "viability, T/C"
observed = "82.9%"


Reported viability, T/C of Cn1nccc1Nc1nccc(-c2ccn(C(CO)c3ccc(Cl)c(F)c3)c(=O)c2)n1 (stereo unspecified) + COc1c(OCCCN2CCOCC2)ccc2c3n(c(=NC(=O)c4cnc(N)nc4)nc12)CCN3 : 11.1%

Reported viability, T/C of CC1(C)CCC(Nc2ncc(C(F)(F)F)c(-c3c[nH]c4c(P(C)(C)=O)c(C#N)ccc34)n2)CN1 (stereo unspecified) + CC(Nc1ccc2c(c1)OCCn1cc(N3C(=O)OCC3C(F)F)nc1-2)C(N)=O : 14.7%

Reported viability, T/C of C#Cc1c(F)ccc2cc(O)cc(-c3ncc4c(N5CC6CCC(C5)N6)nc(OCC56CCCN5CC(F)C6)nc4c3F)c12 (stereo unspecified) + CC(Nc1ncnc2nc[nH]c12)c1cc2cccc(Cl)c2c(=O)n1-c1ccccc1 : 103%

====

System: 354836-022-R-J1-PDC multicell spheroid viability
protocol: Anticancer human tumor 354836-022-R-J1-PDC cell line growth inhibition [PI3K];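 note: spheroids exposed to agents for seven days before the viability read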
setup conditions: second compound 1 µM; first compound 0.316 µM; hits give low values
Listed next: entries and their corresponding viability, T/C.
Lab book: enter the figure in %, no units written.

Known results for molecules:
[[record]]
molecule = "C[C@@H](NC(=O)c1ncnc(N)c1Cl)c1ncc(C(=O)Nc2cc(C(F)(F)F)c(Cl)cn2)s1 + Cc1nc(NC(=O)N2CCCC2C(N)=O)sc1-c1ccnc(C(C)(C)C(F)(F)F)c1"
observed = 76.4

[[record]]
molecule = "CC(C)NCC(C(=O)N1CCN(c2ncnc3c2C(C)CC3O)CC1)c1ccc(Cl)cc1 (stereo not given) + CC(Nc1ncnc2nc[nH]c12)c1cc2cccc(Cl)c2c(=O)n1-c1ccccc1"
observed = 64.3

[[record]]
molecule = "C[C@@H](NC(=O)c1ncnc(N)c1Cl)c1ncc(C(=O)Nc2cc(C(F)(F)F)c(Cl)cn2)s1 + CC(Nc1ncnc2nc[nH]c12)c1cc2cccc(Cl)c2c(=O)n1-c1ccccc1"
observed = 97.4


Reported viability, T/C of CCN1CCN(Cc2ccc(Nc3ncc(F)c(-c4cc(F)c5nc(C)n(C(C)C)c5c4)n3)nc2)CC1 + CC(Nc1ccc2c(c1)OCCn1cc(N3C(=O)OCC3C(F)F)nc1-2)C(N)=O : 46.4

Reported viability, T/C of C[C@@H](NC(=O)c1ncnc(N)c1Cl)c1ncc(C(=O)Nc2cc(C(F)(F)F)c(Cl)cn2)s1 + COc1c(OCCCN2CCOCC2)ccc2c3n(c(=NC(=O)c4cnc(N)nc4)nc12)CCN3 : 1.92

====

System: 354836-022-R-J1-PDC multicell spheroid viability
protocol: Anticancer human tumor 354836-022-R-J1-PDC cell line growth inhibition [PI3K]; active = viability on the fitted dose curve at most 10% of control; inactive = the rest;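 note: spheroids exposed to agents for seven days before the viability read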
setup conditions: second compound 1 µM; first compound 0.316 µM
From the text: Combinatorial screen of targeted agents with the PI3K inhibitors inavolisib, alpelisib, duvelisib, and copanlisib in multi-cell type tumor spheroids A high-throughput screen of multi-cell type tumor spheroids was designed to identify active combinations of targeted small molecules and PI3K pathway inhibitors. […] Compounds. […] If the clinical Cmax for an agent had not been determined, the highest concentration tested was 10 microM. […]
Outcomes you can answer with include only these: label 1 = active, label 0 = inactive

Past entries and their recorded results:
[[record]]
compound = "CNC(=O)c1ccc(N2C(=S)N(c3ccc(C#N)c(C(F)(F)F)c3)C(=O)C2(C)C)cc1F + Cc1nc(NC(=O)N2CCCC2C(N)=O)sc1-c1ccnc(C(C)(C)C(F)(F)F)c1"
class = "label 0"

[[record]]
compound = "CCCS(=O)(=O)Nc1ccc(F)c(C(=O)c2c[nH]c3ncc(-c4ccc(Cl)cc4)cc23)c1F + CC(Nc1ccc2c(c1)OCCn1cc(N3C(=O)OCC3C(F)F)nc1-2)C(N)=O"
class = "label 0"

[[record]]
compound = "CC1(C)CCC(CN2CCN(c3ccc(C(=O)NS(=O)(=O)c4ccc(NCC5CCOCC5)c([N+](=O)[O-])c4)c(Oc4cnc5[nH]ccc5c4)c3)CC2)=C(c2ccc(Cl)cc2)C1 + COc1c(OCCCN2CCOCC2)ccc2c3n(c(=NC(=O)c4cnc(N)nc4)nc12)CCN3"
class = "label 1"


Enquiry: Call for entry CNC(=O)c1ccc(N2C(=S)N(c3ccc(C#N)c(C(F)(F)F)c3)C(=O)C2(C)C)cc1F + COc1c(OCCCN2CCOCC2)ccc2c3n(c(=NC(=O)c4cnc(N)nc4)nc12)CCN3 :
Return: label 1

Enquiry: Call for entry CC(Cn1ccc(-c2ccc(C#N)c(Cl)c2)n1)NC(=O)c1cc(C(C)O)[nH]n1 (configuration not stated) + CC(Nc1ccc2c(c1)OCCn1cc(N3C(=O)OCC3C(F)F)nc1-2)C(N)=O :
Return: label 0

Enquiry: Call for entry CCCS(=O)(=O)Nc1ccc(F)c(C(=O)c2c[nH]c3ncc(-c4ccc(Cl)cc4)cc23)c1F + Cc1nc(NC(=O)N2CCCC2C(N)=O)sc1-c1ccnc(C(C)(C)C(F)(F)F)c1 :
Return: label 0

Enquiry: Call for entry Cn1nccc1Nc1nccc(-c2ccn(C(CO)c3ccc(Cl)c(F)c3)c(=O)c2)n1 (configuration not stated) + COc1c(OCCCN2CCOCC2)ccc2c3n(c(=NC(=O)c4cnc(N)nc4)nc12)CCN3 :
Return: label 1

Enquiry: Call for entry Cn1ncc(Cl)c1-c1cc(C(=O)NC(CN)Cc2cccc(F)c2)sc1Cl (configuration not stated) + COc1c(OCCCN2CCOCC2)ccc2c3n(c(=NC(=O)c4cnc(N)nc4)nc12)CCN3 :
Return: label 1

Enquiry: Call for entry CC(C)NCC(C(=O)N1CCN(c2ncnc3c2C(C)CC3O)CC1)c1ccc(Cl)cc1 (configuration not stated) + COc1c(OCCCN2CCOCC2)ccc2c3n(c(=NC(=O)c4cnc(N)nc4)nc12)CCN3 :
Return: label 1

Enquiry: Call for entry CCCS(=O)(=O)Nc1ccc(F)c(C(=O)c2c[nH]c3ncc(-c4ccc(Cl)cc4)cc23)c1F + CC(Nc1ncnc2nc[nH]c12)c1cc2cccc(Cl)c2c(=O)n1-c1ccccc1 :
Return: label 0

Enquiry: Call for entry CC1(C)CCC(Nc2ncc(C(F)(F)F)c(-c3c[nH]c4c(P(C)(C)=O)c(C#N)ccc34)n2)CN1 (configuration not stated) + CC(Nc1ncnc2nc[nH]c12)c1cc2cccc(Cl)c2c(=O)n1-c1ccccc1 :
Return: label 0

Enquiry: Call for entry Cn1nccc1Nc1nccc(-c2ccn(C(CO)c3ccc(Cl)c(F)c3)c(=O)c2)n1 (configuration not stated) + CC(Nc1ccc2c(c1)OCCn1cc(N3C(=O)OCC3C(F)F)nc1-2)C(N)=O :
Return: label 0

====

Test system: 354836-022-R-J1-PDC multicell spheroid viability
protocol: Anticancer human tumor 354836-022-R-J1-PDC cell line growth inhibition [PI3K];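 note: spheroids exposed to agents for seven days before the viability read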
setup conditions: second compound 10 µM; first compound 0.1 µM; hits give low values
readout name: viability, T/C

[[record]]
compound = "CC(Cn1ccc(-c2ccc(C#N)c(Cl)c2)n1)NC(=O)c1cc(C(C)O)[nH]n1 (stereo not given) + Cc1nc(NC(=O)N2CCCC2C(N)=O)sc1-c1ccnc(C(C)(C)C(F)(F)F)c1"
readout_name = "viability, T/C"
observed = "33.7%"

[[record]]
compound = "CC(=O)c1c(C)c2cnc(Nc3ccc(N4CCNCC4)cn3)nc2n(C2CCCC2)c1=O + CC(Nc1ncnc2nc[nH]c12)c1cc2cccc(Cl)c2c(=O)n1-c1ccccc1"
readout_name = "viability, T/C"
observed = "91.5%"

[[record]]
compound = "CC1(C)CCC(Nc2ncc(C(F)(F)F)c(-c3c[nH]c4c(P(C)(C)=O)c(C#N)ccc34)n2)CN1 (stereo not given) + Cc1nc(NC(=O)N2CCCC2C(N)=O)sc1-c1ccnc(C(C)(C)C(F)(F)F)c1"
readout_name = "viability, T/C"
observed = "10.6%"


Reported viability, T/C of CC1(C)CCC(CN2CCN(c3ccc(C(=O)NS(=O)(=O)c4ccc(NCC5CCOCC5)c([N+](=O)[O-])c4)c(Oc4cnc5[nH]ccc5c4)c3)CC2)=C(c2ccc(Cl)cc2)C1 + Cc1nc(NC(=O)N2CCCC2C(N)=O)sc1-c1ccnc(C(C)(C)C(F)(F)F)c1 : 39.8%

Reported viability, T/C of CCCS(=O)(=O)Nc1ccc(F)c(C(=O)c2c[nH]c3ncc(-c4ccc(Cl)cc4)cc23)c1F + CC(Nc1ncnc2nc[nH]c12)c1cc2cccc(Cl)c2c(=O)n1-c1ccccc1 : 96%
